From: patent US7205261B2

A collection of compounds and their measured activity at 20 µg/mL
- Test system: Raphanus sativus L. cv. Cherry Belle cotyledons
- protocol: Radish cotyledon bioassay (expansion growth and chlorophyll accumulation)
- Format: in vivo
- condition details: Raphanus sativus; Experiment 2; 20 mg/l; 48 h; read-out: Change in fresh weight, % of control
Report the figure along with its unit, number first.

>>> reported("NC1(C(=O)O)CC1 [ACC, 1-aminocyclopropane-1-carboxylic acid, reference compound]")
"52%"
>>> reported("O=CNCCO [NAE-1, N-Formyl-2-aminoethanol]")
"107%"
>>> reported("CCCCCCCC/C=C\\CCCCCCCC(=O)NCCO [NAE-18:1(Δ9), N-Oleoyl-2-aminoethanol]")
"71%"
>>> reported("CCCCCCCCCCCCCCCC(=O)NCCO [NAE-16:0, N-Hexadecanoyl-2-aminoethanol]")
"153%"
>>> reported("CC(=O)NCCO [NAE-2, N-Acetyl-2-aminoethanol]")
"72%"

// CCCCCCCC(=O)NCCO [NAE-8:0, N-Octanoyl-2-aminoethanol] : activity at 20 µg/mL value = 102%

activity at 20 µg/mL reading for c1coc(CNc2ncnc3[nH]cnc23)c1 [Kinetin, kinetin, reference compound] : 336%

The compound O=C(NCCO)c1ccccc1 [NAE-Bz, N-Benzoyl-2-aminoethanol] showed activity at 20 µg/mL equal to 91%

Notebook: CCCCCCCCCC(=O)NCCO [NAE-10:0, N-Decanoyl-2-aminoethanol] , activity at 20 µg/mL read as 143%

Query CCCCCCCCCCCCCCCCCC(=O)NCCO [NAE-18:0, N-Octadecanoyl-2-aminoethanol] yields activity at 20 µg/mL of 96%

Measured activity at 20 µg/mL, CCCC(=O)NCCO [NAE-4:0, N-Butyroyl-2-aminoethanol] : 88%

// sample CCCCCCCCCCCCCC(=O)NCCO [NAE-14:0, N-Tetradecanoyl-2-aminoethanol] , its activity at 20 µg/mL was 98%

The recorded activity at 20 µg/mL for CCCCC(CC)C(=O)NCCO (stereo not shown) [NAE-EH, N-(2-Ethylhexanoyl)-2-aminoethanol] is 95%
